Origin of measurements: PubChem BioAssay (NCI)

test: NCI Yeast Anticancer Drug Screen. Data for the sgs1 mgt1 strain (AID 161);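 further: 0% = growth of cultures given vehicle only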; conditions: S. cerevisiae sgs1 mgt1 strain, at 50.0 µM, stronger effect = higher value
Compounds without any hit were thinned out: in the full panel of roughly 79,000, 15% have a hit. Calls of active or inactive are those of the source. No stated cut-off is given here; in the data, active means growth inhibition above about 70%; inactive means the rest.
MEASUREMENT NAME: growth inhibition

Consider the worked cases shown below.
O=C1NCC2Cc3ccccc3C(c3ccccc3)=C12 (centres undefined): 5.6% (inactive)
[O-][n+]1cc(N=Nc2ccc(Cl)cc2)nn1-c1ccc(Cl)cc1: -8.5% (inactive)
O=C(Nc1ccc(S(=O)(=O)N2CCCCC2)cc1)OC1CCCC1: 1.15% (inactive)
CCCCC(Sc1cc(Cl)c(C)cc1S(=O)(=O)Nc1n[nH]c(N)n1)C(=O)OC (centres undefined): 50% (inactive)
CCOC(=O)C(NC(=O)CC)(C(F)(F)F)P(=O)(OCC)OCC (centres undefined): -35.7% (inactive)

The molecule listed as CC(=O)c1cc(C)oc1C has a reported growth inhibition of -12.8% (inactive)

Sample O=C(O)c1cc(N=Nc2ccc([N+](=O)[O-])cc2S(=O)(=O)O)ccc1O ; growth inhibition observed: 24.3% (inactive)

Reported growth inhibition ( CCN(CCO)CC(=O)c1cc(Cl)ccc1OC ) = 16.2% (inactive)

The molecule listed as N#CCCN(CCC#N)c1ccc(/C=C2\N=C(c3cc([N+](=O)[O-])ccc3Cl)OC2=O)cc1 has a reported growth inhibition of -16.4% (inactive)

Looking up CCSC1(SCC)C2(CCCCC2)C(=O)C12CCCCC2 , I see its growth inhibition listed as 9.1% (inactive)

Please fill in: growth inhibition reported for Cc1ccsc1S(N)(=O)=O = -10.6% (inactive)

// growth inhibition lookup, molecule = Cc1nc(Nc2ccc(Cl)c(Cl)c2)sc1C(/C=C/c1ccc2c(c1)OCO2)=N/Nc1ccc([N+](=O)[O-])cc1[N+](=O)[O-] , result: 3.75% (inactive)

Input CC1C=CC(C)N(c2nnnn2C)N1c1nnnn1C (centres undefined) . Output growth inhibition: 14.9% (inactive)

growth inhibition reading for C[C@@H](O)c1nc(C(N)=O)cs1 : 15.3% (inactive)
